Molecular target: Cannabinoid receptor 2 (Homo sapiens, UniProt P34972)
Sequence (P34972 whole entry): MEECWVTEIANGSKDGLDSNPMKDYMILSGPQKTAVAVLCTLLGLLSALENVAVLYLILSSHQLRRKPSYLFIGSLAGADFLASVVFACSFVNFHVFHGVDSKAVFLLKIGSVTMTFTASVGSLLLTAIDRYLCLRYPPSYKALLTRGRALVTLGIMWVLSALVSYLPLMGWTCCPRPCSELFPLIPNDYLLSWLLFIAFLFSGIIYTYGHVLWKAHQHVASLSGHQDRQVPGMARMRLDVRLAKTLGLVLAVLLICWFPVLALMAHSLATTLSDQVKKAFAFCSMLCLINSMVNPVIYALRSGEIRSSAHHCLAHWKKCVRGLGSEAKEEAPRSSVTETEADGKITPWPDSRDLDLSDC
measure: Ki (nM)
Value expressed in nM; do not type the unit.

## Task // lookup Ki | system=Cannabinoid receptor 2 (Homo sapiens, UniProt P34972) | key= N#Cc1c(Oc2cccc(OS(=O)(=O)CCCC(F)(F)F)c2)cccc1C(F)(F)F
## Result 45.5

###

Biological target: Cannabinoid receptor 1 (Rattus norvegicus, UniProt P20272)
Sequence (P20272 whole entry): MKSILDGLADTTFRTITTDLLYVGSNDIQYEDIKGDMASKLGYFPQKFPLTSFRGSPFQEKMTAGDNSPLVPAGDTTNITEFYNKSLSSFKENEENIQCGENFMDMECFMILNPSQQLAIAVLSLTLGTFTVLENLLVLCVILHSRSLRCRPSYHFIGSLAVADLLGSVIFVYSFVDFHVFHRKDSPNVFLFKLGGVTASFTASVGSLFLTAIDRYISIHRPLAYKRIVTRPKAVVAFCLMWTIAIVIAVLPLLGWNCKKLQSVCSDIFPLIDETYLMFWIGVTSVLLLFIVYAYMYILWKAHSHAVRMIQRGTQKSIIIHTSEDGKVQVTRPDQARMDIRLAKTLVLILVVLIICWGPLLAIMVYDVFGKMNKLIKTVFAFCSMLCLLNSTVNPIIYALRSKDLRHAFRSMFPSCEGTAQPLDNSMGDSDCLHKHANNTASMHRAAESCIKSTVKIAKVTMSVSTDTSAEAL
measure: pKi
Reminder that pKi is minus the log10 of a molar concentration.

## Task // lookup pKi | system=Cannabinoid receptor 1 (Rattus norvegicus, UniProt P20272) | key= N#Cc1c(Oc2cccc(OS(=O)(=O)CCCC(F)(F)F)c2)cccc1C(F)(F)F
## Result 7.26
